target_system: ^14C-Acetat-Einbau in die mit Digitonin fällbaren Steroide (Homo sapiens)
Sequence (P48449 2-732): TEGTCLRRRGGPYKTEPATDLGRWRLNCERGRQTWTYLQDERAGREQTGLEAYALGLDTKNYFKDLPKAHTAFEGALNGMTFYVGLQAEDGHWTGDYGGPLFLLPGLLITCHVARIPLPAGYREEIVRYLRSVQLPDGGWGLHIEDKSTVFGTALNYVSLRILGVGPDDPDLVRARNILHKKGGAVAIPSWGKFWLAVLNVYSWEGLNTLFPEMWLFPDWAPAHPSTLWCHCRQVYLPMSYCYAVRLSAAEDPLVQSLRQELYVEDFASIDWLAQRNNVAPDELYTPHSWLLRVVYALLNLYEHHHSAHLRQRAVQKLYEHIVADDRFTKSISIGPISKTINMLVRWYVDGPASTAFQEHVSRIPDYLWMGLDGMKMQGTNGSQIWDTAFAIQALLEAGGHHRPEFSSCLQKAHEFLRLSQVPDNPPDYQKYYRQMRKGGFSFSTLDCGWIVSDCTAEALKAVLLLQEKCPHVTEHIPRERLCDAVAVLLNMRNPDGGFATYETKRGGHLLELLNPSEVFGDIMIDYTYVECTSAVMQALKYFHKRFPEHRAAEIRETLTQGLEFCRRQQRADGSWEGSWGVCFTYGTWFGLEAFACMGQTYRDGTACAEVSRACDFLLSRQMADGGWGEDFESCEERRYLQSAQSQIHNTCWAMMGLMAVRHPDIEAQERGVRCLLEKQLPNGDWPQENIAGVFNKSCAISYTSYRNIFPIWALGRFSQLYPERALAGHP
assay_procedure: Inhibition of 14C-acetate incorporation into digitonin-precipitable steroids
Assay type: cell-based
condition_context: read-out: Prozentwerte, um die die Verbindungen den ^14C-Acetat-Einbau hemmen
measured_attribute: inhibition at 0.01 µM (%)

line_notation=CN(C)Cc1ccc(CC2CCN(C(=O)Oc3ccc(Cl)cc3)CC2)cc1 measured_attribute="inhibition at 0.01 µM" recorded_measurement=80
line_notation=CN(C)Cc1ccc(CC2CCN(C(=O)Oc3ccc(F)cc3)CC2)cc1 measured_attribute="inhibition at 0.01 µM" recorded_measurement=84
line_notation=Cc1ccc(OC(=O)N2CCC(Cc3ccc(CN(C)C)cc3)CC2)cc1.Cl measured_attribute="inhibition at 0.01 µM" recorded_measurement=82
line_notation=CN(C)Cc1ccc(SC2CCN(C(=O)Oc3ccc(Cl)cc3)CC2)cc1 measured_attribute="inhibition at 0.01 µM" recorded_measurement=86

The values you see were collected from patent EP1060162B1.
